Recorded IC50 values for a group of molecules are listed next.
- assayed.system: Vesicular acetylcholine transporter (Homo sapiens)
- Sequence (Q16572 whole entry): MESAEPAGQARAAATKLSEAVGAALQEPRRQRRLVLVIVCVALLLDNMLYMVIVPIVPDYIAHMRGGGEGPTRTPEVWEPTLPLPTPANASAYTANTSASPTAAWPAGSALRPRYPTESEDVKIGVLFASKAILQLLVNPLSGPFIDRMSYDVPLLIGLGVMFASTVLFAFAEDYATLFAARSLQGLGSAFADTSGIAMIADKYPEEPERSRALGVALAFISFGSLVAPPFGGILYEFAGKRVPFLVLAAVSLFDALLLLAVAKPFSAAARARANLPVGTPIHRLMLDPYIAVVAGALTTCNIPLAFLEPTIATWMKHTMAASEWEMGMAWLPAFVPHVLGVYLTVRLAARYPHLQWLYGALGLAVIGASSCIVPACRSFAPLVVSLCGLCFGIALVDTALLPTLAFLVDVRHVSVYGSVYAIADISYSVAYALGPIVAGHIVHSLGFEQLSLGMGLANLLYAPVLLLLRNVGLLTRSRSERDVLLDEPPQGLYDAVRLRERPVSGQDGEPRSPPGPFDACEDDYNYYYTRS
- measurement.protocol: Displacement of [3H]vesamicol from human VAChT transfected in PC12 cell line

{"columns": ["molecule", "IC50"],
 "data": [
  ["C#CCN1CCC(O)C(N2CCN(c3ccccc3)CC2)C1 (configuration not stated)", "> 100 nM"],
  ["C=C(C)CN1CCC(N2CCN(c3ccccc3)CC2)C(O)C1 (configuration not stated)", "> 100 nM"],
  ["OC1CN(Cc2cccc(Br)c2)CCC1N1CCN(c2ccccc2)CC1 (configuration not stated)", "66 nM"],
  ["OC1CN(Cc2ccccc2)CCC1N1CCN(c2ccccc2)CC1 (configuration not stated)", "57 nM"],
  ["CCN1CCC(O)C(N2CCN(c3ccccc3)CC2)C1 (configuration not stated)", "> 1000 nM"],
  ["C=CCN1CCC(O)C(N2CCN(c3ccccc3)CC2)C1 (configuration not stated)", "> 100 nM"],
  ["OC1CCN(Cc2ccccc2Br)CC1N1CCN(c2ccccc2)CC1 (configuration not stated)", "47 nM"],
  ["OC1CCN(Cc2ccccc2)CC1N1CCN(c2ccccc2)CC1 (configuration not stated)", "> 100 nM"],
  ["CCN1CCC(N2CCN(c3ccccc3)CC2)C(O)C1 (configuration not stated)", "> 1000 nM"],
  ["OC1CN(C/C=C/I)CCC1N1CCN(c2ccccc2)CC1 (configuration not stated)", "> 100 nM"],
  ["C=C(C)CN1CCC(O)C(N2CCN(c3ccccc3)CC2)C1 (configuration not stated)", "> 100 nM"],
  ["OC1CCN(Cc2cccc(Br)c2)CC1N1CCN(c2ccccc2)CC1 (configuration not stated)", "46 nM"],
  ["OC1CCN(C/C=C/I)CC1N1CCN(c2ccccc2)CC1 (configuration not stated)", "> 100 nM"],
  ["OC1CCNCC1N1CCN(c2ccccc2)CC1 (configuration not stated)", "> 100 nM"],
  ["OC1CNCCC1N1CCN(c2ccccc2)CC1 (configuration not stated)", "100 nM"],
  ["C/C=C/CN1CCC(N2CCN(c3ccccc3)CC2)C(O)C1 (configuration not stated)", "100 nM"],
  ["OC1CN(Cc2ccc(Br)cc2)CCC1N1CCN(c2ccccc2)CC1 (configuration not stated)", "> 100 nM"],
  ["C/C=C/CN1CCC(O)C(N2CCN(c3ccccc3)CC2)C1 (configuration not stated)", "> 100 nM"],
  ["OC1CCN(Cc2ccc(Br)cc2)CC1N1CCN(c2ccccc2)CC1 (configuration not stated)", "> 100 nM"],
  ["OC1CN(Cc2ccccc2Br)CCC1N1CCN(c2ccccc2)CC1 (configuration not stated)", "11 nM"],
  ["C=CCN1CCC(N2CCN(c3ccccc3)CC2)C(O)C1 (configuration not stated)", "> 100 nM"],
  ["C#CCN1CCC(N2CCN(c3ccccc3)CC2)C(O)C1 (configuration not stated)", "> 1000 nM"]
]}
